- system.under.test: T1, human CD3ε/δ-Fc fusion protein (soluble recombinant CD3ε/δ complex) (human, UniProt P04234 22-105)
- T1 construct: also called huCD3ε/δ; huCD3; not shown: hinge, CH2, CH3 of human IgG with tag
- test.name: SPR Biacore, CD3εδ-Fc captured, Fab analyte
Rule for this label: yes means koff is less than 0.001 s⁻¹; no means koff is at least 0.001 s⁻¹.

{"binder": "10E6-G6 Fab (Fab, V domains shown) VH: EVQLVETGGGLVQSGKSLKLTCATSGFTVTNAWMHWVRQSPEKQLEWVAQIKAKSNNYETYYAESVKGRFTISRDDSKSSVYLQMNSLKEEDTAIYYCRGTQYGYNPFDYWGQGVMVTVSS VL: DVVMTQSPVSLSVSLGGQVSISCRSSQSLVHNNGYTYLSWYLQKPGQSPQVFIYKVSNRFSGISDRFSGSGSGTDFTLKISRIEPDDLGVYYCGQGTHYPFTFGSGTKLEIK", "cat": "no"}
{"binder": "20G6-F3 Fab (Fab, V domains shown, also called BDW-20G6-F3) VH: EVQLVETGGSLVQPGKSLKLTCATSGFTFTKAWMHWVRQSPEKQLEWVAQIKDKSNSYATYYAESVKGRFTISRDDSKSTIYLQMNSLKEEDTAIYYCRGVYYALSPFDYWGQGVMVTVSS VL: DVVMTQTPVSLSVSLGGQVSISCRSSQSLVHNNGNTYLSWYLQKPGQSPQSLIYKVSNRFSGFSDRFSGSGSGTDFTLKISRVDPDDLGVYYCGQGTQYPFTFGSGTKLEIKR", "cat": "yes"}
{"binder": "18G9-H11 Fab (Fab, V domains shown) VH: EVQLVETGGSLVQPGKSLKLTCATSGFTFSNAWIQWVRQSPEKQLEWVAQIKAKSNNYATYYAESVKGRFTISRDDSKSSVYLQMNSLKEEDTALYYCTWRHYYSSHTMDAWGQGTLVTVSS VL: DVVMTQTPVSLSVSLGGQVSISCRSSQSLVHNNGNTYLSWYLQKPGQSPQLLIYKVSNRFSGISDRFSGSGSGTDFTLKISRVAPTDLGVYYCGQGSQYPFTFGAGTKLELK", "cat": "no"}
{"binder": "4E7-C9 Fab (Fab, V domains shown, also called BDX-4E7-C9) VH: EVQVVETGGSLVQPGKSLKLTCATSGFTFSNAWMHWVRQSPEKQLEWVAQIKDKSNNYATYYAESLKGRFTISRDDPKRSIYLQMNSLREEDTAIYYCRYVHYGIGYAMDAWGQGTSVTVSS VL: DVVMTQTPVSLSVSLGGQVSISCRSSQSLEHNNGNTYLSWYLQKPGQSPQPLIYKVSNRFSGISDRFSGSGSGTDFTLKISRVEPDDLGVYYCGQGTQYPFTFGPGTKLELKR", "cat": "no"}
{"binder": "18F5-H10 Fab (Fab, V domains shown, also called BDX-18F5-H10) VH: EVQVVETGGSLVQPGKSLKLTCATSGFTFTNAWMHWVRRSPEKQLEWVAQIKDKSNNYATYYAESVKGRFTISRDDSKSSIYLQMNSLKEEDTAIYYCRYVHYRFAYALDAWGRGTSVSVSS VL: DVLMTQTPVSLSVSLGGQVSISCRSSQSLVHTNGNTYLSWYLQKPGQSPQLLIYKVSNRLSGISDRFSGSGSGTDFTLKISRVEPDDLGVYYCGQGTHYPFTFGAGTKLELKR", "cat": "yes"}
{"binder": "20E5-F10 Fab (Fab, V domains shown, also called 20E5-F10-huFab) VH: EVQLVETGENLVQPGKSLRLTCATSGFSFSNAWMHWIRQSPEKQLEWVAQIKDKSNNYATYYAESVNGRFTISRDDSKSSIYLHMDNLKEEDSAIYYCRYVHYGVRFFYTMDVWGQGTSVTVSS VL: DVVMTQTPVSLSVSLGDQVSISCRPSQSLVHNNGNTYLSWYLQKPGQSPHPLIYKVSNRFSGISDRFSGSGSGTDFTLKISRVEPDDLGVYYCGQGTQYPFTFGSGTKLEIK", "cat": "yes"}
{"binder": "1E6-C9 Fab (Fab, V domains shown, also called 1E6-B8; 1E6-B8/B9-C9-Fab) VH: EVQLVETGGSLVQPGKSLKLTCATSGFTFSYAWMHWVRQSPDKQLQWVAQIKAKSNNYATYYAESVEGRFTISRDDSKSSVYLQMNSLKEEDTAIYYCRGVYYGLLGLDAWGQGTSVTVSS VL: DVVMTQTPVSLSVRLGGQVSISCRSSQSLVHNNGNTYLSWFLQKPGQSPQLLIYKVSNRFSGISDRFSGSASGTDFTLKISRVEPDDLGVYYCGQGTHYPFTFGSGTKLEIK", "cat": "no"}
{"binder": "13H2-C2 Fab (Fab, V domains shown, also called 13H2-C3) VH: EEELVETGGSLVQPGKSLKLTCATSGFTFSNAWMHWVRQSPDKQLEWVAQIKAKSNNYATYYAESVKGRFTISRDDSKSSVYLQMNNLKEEDTAIYYCRYVHYGLAPMDAWGQGTSVTVSS VL: DVVMTQTPVSLSVSLGGQVSISCRSSQSLVHNNGNTYLSWYLQKAGQSPQLLIYKVSNRFSGISDRFSGSGSGTDFILKISRVEPDDLGVFYCGQGTQYPFTFGAGTKLELK", "cat": "no"}

Values from patent US20210292423A1
